Attribution: ChEMBL document CHEMBL3433997

# System: Hexose transporter 1 (Plasmodium falciparum)
# Experimental protocol: ST_JUDE_LEISH: Cytotoxicity at 2uM final concentration against transgenic Leishmania Mexicana promastigotes LmPfHT that are glucose transport deficient and complemented with the Plasmodium falciparum hexose transporter. Activity is measured by DNA content using SYBR green in vitro
# Type: functional
Quantity name: inhibition (%)
Kindly provide the numeric value in % only, without the unit symbol.

COc1cccc(C(C)(C)NC[C@@H](O)[C@H](Cc2ccccc2)NC(=O)c2cc(C3CCCC3)cc(N3CCCCS3(=O)=O)c2F)c1 = 2.15
COc1ccc2nccc(N3CCC(NCCNS(=O)(=O)c4ccc5c(c4)NC(=O)CS5)C3)c2n1 (stereo unspecified) = -1.18
COc1cc(F)c2ncc(Cl)c(CCN3CCC(NCc4ccc5c(n4)NC(=O)CS5)CC3)c2c1 = 8.44
Cc1[nH]c(C)c(-c2ccc(OCc3ccc(F)cc3)cc2)c(=O)c1Cl = -0.27
CCCCc1ccc(C(=O)Nc2ccc3nc(N4CCN(CC)CC4)cc(C)c3c2)cc1 = -0.16

--- query ---
Item: Oc1ccccc1Nc1nc(NCc2ccco2)c2ccccc2n1 Test system: Hexose transporter 1 (Plasmodium falciparum) Read-out: inhibition Value: ?
13.6

----------
Reported values of inhibition for individual entries
# System: Hexose transporter 1 (Plasmodium falciparum)
# Experimental protocol: ST_JUDE_LEISH: Cytotoxicity at 2uM final concentration against transgenic Leishmania Mexicana promastigotes LmPfHT that are glucose transport deficient and complemented with the Plasmodium falciparum hexose transporter. Activity is measured by DNA content using SYBR green in vitro
# Type: functional
Value expressed in %; do not type the unit.

CN1Cc2ccc(NS(=O)(=O)c3ccc(-c4ccoc4)cc3)cc2C1 = -1.72
COc1ccc(NC(=O)/C=C/c2ccc(Cl)c(Cl)c2)cc1N1CCN(C)CC1 = 4.85
CCOC(=O)/C(=N\OC(C)(C)C(=O)NCc1ccc(O)c(O)c1)c1csc(NC(c2ccccc2)(c2ccccc2)c2ccccc2)n1 = -1.09
O=C(NCC(NCCCNc1cc(=O)c2ccccc2[nH]1)c1cc(Br)cc(Br)c1)C1=CCCC1 (centres undefined) = 4.82
COc1ccc(-c2cccc(NC(=O)c3cccc(C#N)c3)c2)cc1CN1CCCC1 = 15.9
Cc1ccccc1C1CCN(c2ccc(NC(=O)c3ccc(Cl)nc3)cc2)CC1 = -3.74
Fc1cccc(COc2ccc(-n3ccc4c(NCCCn5ccnc5)ncnc43)cc2Cl)n1 = 2.45
CS(=O)(=O)Nc1ccc2c(C3CCN(CCC4CCN(C(=O)/C=C/c5ccc(Cl)c(Cl)c5)CC4)CC3)c[nH]c2c1 = 3.65

Please examine the following record next.
# inhibition lookup, item O=S(=O)(NCCN1CCCC1)c1cccc(-c2ccc(CNC3Cc4ccccc4C3)cc2)c1
16.9

----------
# System: Solute carrier family 2, facilitated glucose transporter member 1 (Homo sapiens) (UniProt P11166)
# Sequence (P11166 whole entry): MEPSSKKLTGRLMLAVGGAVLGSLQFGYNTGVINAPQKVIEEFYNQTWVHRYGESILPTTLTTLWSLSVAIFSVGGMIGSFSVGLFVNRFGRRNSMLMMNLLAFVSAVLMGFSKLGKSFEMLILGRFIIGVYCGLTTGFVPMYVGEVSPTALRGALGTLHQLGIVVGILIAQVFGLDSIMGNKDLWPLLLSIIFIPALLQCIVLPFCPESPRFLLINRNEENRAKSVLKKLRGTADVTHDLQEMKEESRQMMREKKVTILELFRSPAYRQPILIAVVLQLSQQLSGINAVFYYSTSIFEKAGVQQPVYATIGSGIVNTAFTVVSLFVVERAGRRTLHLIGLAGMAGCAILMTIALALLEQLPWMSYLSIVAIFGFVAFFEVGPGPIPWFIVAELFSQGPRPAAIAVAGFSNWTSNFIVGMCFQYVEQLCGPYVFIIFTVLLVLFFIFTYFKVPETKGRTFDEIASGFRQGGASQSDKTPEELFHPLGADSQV
# Experimental protocol: ST_JUDE_LEISH: Cytotoxicity at 2uM final concentration against transgenic Leishmania Mexicana promastigotes LmGLUT1 that are glucose transport deficient and complemented with the human glucose transporter GLUT1. Activity is measured by DNA content using SYBR green in vitro
# Type: functional
Quantity name: inhibition
Answer as a quantity: numeral, then unit.

CNS(=O)(=O)c1ccc(NC(=O)c2cc(-c3cccnc3)nc3ccc(Br)cc23)cc1 = 2.58%
Cc1cc(-c2cccc(CNC3CCN(C)CC3)c2)ccc1S(=O)(=O)NC1CCC1 = 2.28%
Nc1c(Cl)cc(C(O)CNCCCCCOCCCc2ccc3ncccc3c2)cc1Cl (configuration not stated) = 5.88%
Cc1ccc(C(=O)Nc2ccc(C)c(OC3CCN(CCC(C)C)C3)c2)cc1 (configuration not stated) = 8.1%
COc1ccccc1-c1cc(C(=O)N2CCN(S(=O)(=O)c3ccc(C)cc3)CC2)[nH]n1 = 6.02%
Cc1cc(N[C@@H](Cc2ccccc2)C(=O)NCCOc2ccccc2)nc(NCCc2ccc(F)cc2)n1 = 15.1%
CCCc1cn2c3c(cc(C(=O)N[C@@H](Cc4ccccc4)[C@H](O)CNC4CCCCC4)cc13)N(CC)S(=O)(=O)CC2 = 0.5%
COc1cc2nc(-c3ccc(Br)cc3)cc(N)c2cc1OC = 64.2%
N=C(N)c1ccc(Nc2nc(Nc3ccc(-c4ccccc4)cc3)ncc2[N+](=O)[O-])cc1 = 3.15%
CN(C)CCNCc1cccc(-c2ccc3c(Nc4cc(O)c(Cl)cc4F)ccnc3c2)c1 = 3.57%

Bench note: what inhibition did CN1CCCN(Cc2ccc(-c3ccc(NC(=O)c4ccc(C#N)cc4)cc3)cc2)CC1 show?
0.69%

Give the measured inhibition of O=C(Nc1cccc(CN2CCCN(Cc3ccsc3)CC2)c1)c1ccc(-c2ccccc2)cc1 .
2.55%

inhibition lookup needed for CC(C)(C)c1ccc(S(=O)(=O)Nc2ccccc2Cn2nc(N3CCNCC3)ccc2=O)cc1 , thanks.
8.03%
